# experimental-protocol: self-splicing fitness, log relative to wild type (ln ratio); higher = more splicing; Tetrahymena group I intron in knt gene, E. coli kanamycin selection, DiMSum; sequences stand for … in CUCUCU…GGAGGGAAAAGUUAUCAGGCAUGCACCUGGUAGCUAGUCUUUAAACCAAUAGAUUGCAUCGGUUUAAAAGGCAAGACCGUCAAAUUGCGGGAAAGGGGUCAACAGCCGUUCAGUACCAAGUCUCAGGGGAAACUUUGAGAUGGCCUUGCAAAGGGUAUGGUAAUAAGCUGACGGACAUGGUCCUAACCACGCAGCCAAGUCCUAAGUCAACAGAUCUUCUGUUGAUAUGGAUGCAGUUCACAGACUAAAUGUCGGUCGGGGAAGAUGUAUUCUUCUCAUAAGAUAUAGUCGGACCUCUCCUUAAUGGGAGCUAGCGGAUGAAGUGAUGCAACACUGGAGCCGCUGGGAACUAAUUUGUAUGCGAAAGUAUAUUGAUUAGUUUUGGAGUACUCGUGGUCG;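 also: selection with 25 µg/mL kanamycin versus none on LB agar overnight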
# particulars: 30 °C

sequence-input: CUGAAGCAAUAUUACGACGA
self-splicing fitness (ln): -1.04

sequence-input: AGAGAGCAAUAUUACGUCCU
self-splicing fitness (ln): -2.25

sequence-input: UUUAAGCAAUAUUACGAAAU
self-splicing fitness (ln): -2.95

sequence-input: ACACAGCAAUAUUACGUGUA
self-splicing fitness (ln): -3.54

sequence-input: CGCUAGCAAUAUUACGGUCU
self-splicing fitness (ln): -1.02

sequence-input: CUGGAGCAAUAUUACGCAUG
self-splicing fitness (ln): -2.07

sequence-input: CCCUAGCAAUAUUACGGCAA
self-splicing fitness (ln): -3.66

sequence-input: AAGCAGCAAUAUUACGGGGG
self-splicing fitness (ln): -3.26
